# MEASUREMENT_DESCRIPTION: SK-BR-3 proliferation inhibitors, primary screen, cell-based, human, 24 h (AID 847)
# CONDITION_PARAMETERS: SK-BR-3 viability, CellTiter-Glo ATP luminescence, at 10 µM, active compounds read low
In all, about 41,000 compounds went through this assay and about 190 (0.46%) were called active. The sample holds actives, similar compounds and a random draw of the others, so the mix is not that of the screen.
Field: label. Allowed values: criterion met (viability < 90%) or criterion not met (viability >= 90%).

>>> assigned_class("O=C(c1ccco1)N1CCN(C(=O)C2c3ccccc3Oc3ccccc32)CC1")
"criterion not met"
>>> assigned_class("C=CCN1C(=O)C(O)(CC(=O)c2ccc(Cl)cc2)c2ccccc21 (stereo unspecified)")
"criterion met"
>>> assigned_class("COCCCNC(=O)c1c(F)c(F)c(F)c(F)c1F")
"criterion met"
>>> assigned_class("Cc1ccc(C(=O)NCCNS(=O)(=O)c2ccccc2)cc1")
"criterion not met"
>>> assigned_class("CC(C)OC(=O)c1sc2nc3c(cc2c1N)C(=O)CCC3")
"criterion met"
>>> assigned_class("O=C(Cn1c(=O)sc2ccccc21)Nc1ccc2c(c1)OCCO2")
"criterion met"
>>> assigned_class("O=C(c1cccc(C(=O)N2CCc3ccccc32)n1)N1CCc2ccccc21")
"criterion not met"
>>> assigned_class("Cc1ccccc1NC(=O)c1cnn(-c2ccccc2)c1NC(=O)c1ccco1")
"criterion not met"
